FYI, the data here is from paper PMC4357247.

Target: P-glycoprotein (P-gp) (Homo sapiens)
Construct: fluxes in Caco-2 cells monolayer; endogenous in cells; host or cells: Caco-2 cells
Sequence (P08183 whole entry): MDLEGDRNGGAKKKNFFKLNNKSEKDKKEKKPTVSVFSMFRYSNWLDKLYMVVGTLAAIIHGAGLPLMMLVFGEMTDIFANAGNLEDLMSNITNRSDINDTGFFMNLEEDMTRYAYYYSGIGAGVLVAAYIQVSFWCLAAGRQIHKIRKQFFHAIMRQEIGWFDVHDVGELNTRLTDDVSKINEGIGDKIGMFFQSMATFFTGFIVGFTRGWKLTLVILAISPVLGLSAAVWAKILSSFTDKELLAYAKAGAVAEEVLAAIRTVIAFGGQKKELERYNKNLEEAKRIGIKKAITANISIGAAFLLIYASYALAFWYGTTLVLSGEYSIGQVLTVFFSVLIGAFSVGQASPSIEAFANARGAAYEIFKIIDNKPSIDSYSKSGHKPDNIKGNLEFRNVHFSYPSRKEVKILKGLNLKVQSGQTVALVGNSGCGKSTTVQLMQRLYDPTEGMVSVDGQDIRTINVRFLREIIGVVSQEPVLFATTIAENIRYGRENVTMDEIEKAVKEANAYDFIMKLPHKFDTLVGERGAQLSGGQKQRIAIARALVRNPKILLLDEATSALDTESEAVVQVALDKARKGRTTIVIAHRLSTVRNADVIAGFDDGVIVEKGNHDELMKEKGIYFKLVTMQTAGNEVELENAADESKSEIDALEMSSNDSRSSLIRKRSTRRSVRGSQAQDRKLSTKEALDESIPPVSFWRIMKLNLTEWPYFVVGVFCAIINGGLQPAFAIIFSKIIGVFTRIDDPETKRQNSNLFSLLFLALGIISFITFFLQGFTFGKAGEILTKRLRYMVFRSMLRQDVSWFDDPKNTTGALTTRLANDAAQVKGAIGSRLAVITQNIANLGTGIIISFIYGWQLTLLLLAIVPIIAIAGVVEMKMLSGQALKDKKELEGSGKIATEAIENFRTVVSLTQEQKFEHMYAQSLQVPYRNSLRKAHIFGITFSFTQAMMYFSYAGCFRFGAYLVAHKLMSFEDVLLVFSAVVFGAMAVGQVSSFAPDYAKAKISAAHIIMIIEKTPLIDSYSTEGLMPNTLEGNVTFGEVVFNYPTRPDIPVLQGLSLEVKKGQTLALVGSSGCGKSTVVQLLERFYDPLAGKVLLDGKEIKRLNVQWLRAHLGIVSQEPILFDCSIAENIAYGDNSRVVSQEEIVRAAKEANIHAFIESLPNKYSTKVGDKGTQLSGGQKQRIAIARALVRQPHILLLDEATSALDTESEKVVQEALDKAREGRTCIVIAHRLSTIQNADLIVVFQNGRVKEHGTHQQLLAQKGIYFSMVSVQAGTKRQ
Experiment: Efflux ratio (BA/AB) in Caco-2 cells monolayer
Format: in vitro ADME
Conditions: efflux ratio basal-to-apical / apical-to-basal, Caco-2 monolayer, cutoff 3 for P-gp substrate
Measurement label: efflux ratio
// no unit string in output, number only

// map COc1ccc(-c2ccccc2N2CCN(CCCCCC(=O)NCc3ccc(F)nc3)CC2)cc1 to recorded efflux ratio (system: P-glycoprotein (P-gp) (Homo sapiens)) 4.2

---

Assay: Metabolic stability in mouse hepatic microsomes with NADPH-generating system
Assay type: in vitro ADME
Settings: mouse liver microsomes 0.5 mg/mL, 1 μM compound, 37°C, pH 7.4
Some molecules, each annotated with its measured half-life at 1 μM.

Fill in the blank: the reported half-life at 1 μM of COc1ccc(-c2ccccc2N2CCN(C[C@@H](O)COc3cnccn3)CC2)cc1 [BA-10] is ____. 14.8 min

Form field: reported half-life at 1 μM of COc1ccc(-c2ccccc2N2CCN(CCCCCC(=O)NCc3ccc(F)nc3)CC2)cc1 [PF-62] 6.7 min

For N#Cc1ccc(CNC(=O)CCCCCN2CCN(c3ccccc3-c3ccccc3)CC2)cc1 [LP-211, reference compound] , what is its reported half-life at 1 μM? 10.6 min
